B1: library; numbered along this chain (parent)
chain: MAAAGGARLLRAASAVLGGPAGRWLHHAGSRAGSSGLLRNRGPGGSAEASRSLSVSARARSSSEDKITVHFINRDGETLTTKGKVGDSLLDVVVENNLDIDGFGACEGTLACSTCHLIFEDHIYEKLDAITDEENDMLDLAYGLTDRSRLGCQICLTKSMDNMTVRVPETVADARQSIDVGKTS

Variants of: B1
ASSAY DETAILS: scaled log2 fold change in cell abundance, elesclomol vs control (0 = silent mean, 1 = nonsense mean) (scaled log2 ratio); higher = higher viability under elesclomol (loss of FDX1 cuproptosis function);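 further: variant abundance is its share of total variant reads in each endpoint sample, from next-generation sequencing of the integrated ORF PCR-amplified out of genomic DNA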
ASSAY CONTEXT: with ABC1 FDX1 KO; elesclomol 5 nM; glucose 10 mM; 14 days

- MUTANT LABEL: "S50Y"
  scaled log2 fold change: -0.231
- MUTANT LABEL: "R166D"
  scaled log2 fold change: 0.375
- MUTANT LABEL: "D128M"
  scaled log2 fold change: -0.149
- MUTANT LABEL: "A111K"
  scaled log2 fold change: -0.155
- MUTANT LABEL: "A12P"
  scaled log2 fold change: -0.154
- MUTANT LABEL: "L10M"
  scaled log2 fold change: 0.337
- MUTANT LABEL: "S50G"
  scaled log2 fold change: 0.758
- MUTANT LABEL: "R60T"
  scaled log2 fold change: -0.956
- MUTANT LABEL: "L17H"
  scaled log2 fold change: -0.27
- MUTANT LABEL: "D128C"
  scaled log2 fold change: 0.113
- MUTANT LABEL: "N97L"
  scaled log2 fold change: -0.931
- MUTANT LABEL: "K158A"
  scaled log2 fold change: -0.146
- MUTANT LABEL: "G143P"
  scaled log2 fold change: 0.108
- MUTANT LABEL: "S30L"
  scaled log2 fold change: 0.0325
- MUTANT LABEL: "C115L"
  scaled log2 fold change: 1.09
- MUTANT LABEL: "L150F"
  scaled log2 fold change: 0.244
- MUTANT LABEL: "T183M"
  scaled log2 fold change: -0.197
- MUTANT LABEL: "V94C"
  scaled log2 fold change: -0.491
- MUTANT LABEL: "S88I"
  scaled log2 fold change: 0.199
- MUTANT LABEL: "D75N"
  scaled log2 fold change: -0.329
- MUTANT LABEL: "H70C"
  scaled log2 fold change: 0.396
- MUTANT LABEL: "N162V"
  scaled log2 fold change: 0.0601
- MUTANT LABEL: "T114V"
  scaled log2 fold change: 0.906
- MUTANT LABEL: "A3G"
  scaled log2 fold change: 0.242
- MUTANT LABEL: "L98R"
  scaled log2 fold change: 0.136
- MUTANT LABEL: "I72P"
  scaled log2 fold change: 0.991
- MUTANT LABEL: "A59C"
  scaled log2 fold change: -0.665
- MUTANT LABEL: "R39S"
  scaled log2 fold change: 0.489
- MUTANT LABEL: "S56P"
  scaled log2 fold change: 0.19
- MUTANT LABEL: "G36H"
  scaled log2 fold change: 0.443
- MUTANT LABEL: "D65Y"
  scaled log2 fold change: 0.323
- MUTANT LABEL: "C155N"
  scaled log2 fold change: -0.0685
- MUTANT LABEL: "G19K"
  scaled log2 fold change: -0.0528
- MUTANT LABEL: "D136H"
  scaled log2 fold change: 0.556
- MUTANT LABEL: "R41G"
  scaled log2 fold change: -0.751
- MUTANT LABEL: "I118G"
  scaled log2 fold change: 0.403
- MUTANT LABEL: "R175F"
  scaled log2 fold change: 0.208
- MUTANT LABEL: "I72D"
  scaled log2 fold change: 0.34
- MUTANT LABEL: "S88T"
  scaled log2 fold change: -0.996
- MUTANT LABEL: "G42Q"
  scaled log2 fold change: 0.242
- MUTANT LABEL: "S52T"
  scaled log2 fold change: -0.921
- MUTANT LABEL: "R147S"
  scaled log2 fold change: -0.721
- MUTANT LABEL: "R58Y"
  scaled log2 fold change: -0.339
- MUTANT LABEL: "S46C"
  scaled log2 fold change: 0.738
- MUTANT LABEL: "E133G"
  scaled log2 fold change: -0.151
- MUTANT LABEL: "F71P"
  scaled log2 fold change: 1.18
- MUTANT LABEL: "A105R"
  scaled log2 fold change: 0.523
- MUTANT LABEL: "S184A"
  scaled log2 fold change: 0.168
- MUTANT LABEL: "S56D"
  scaled log2 fold change: -0.745
- MUTANT LABEL: "L150T"
  scaled log2 fold change: 0.595
- MUTANT LABEL: "A47C"
  scaled log2 fold change: 0.788
- MUTANT LABEL: "G143N"
  scaled log2 fold change: -0.705
- MUTANT LABEL: "V69P"
  scaled log2 fold change: 1.29
- MUTANT LABEL: "N97G"
  scaled log2 fold change: 0.132
- MUTANT LABEL: "V180I"
  scaled log2 fold change: 0.213
- MUTANT LABEL: "S184R"
  scaled log2 fold change: 0.0521
- MUTANT LABEL: "D99F"
  scaled log2 fold change: -0.0227
- MUTANT LABEL: "E120P"
  scaled log2 fold change: 0.108
- MUTANT LABEL: "L140R"
  scaled log2 fold change: -0.341
- MUTANT LABEL: "Y142A"
  scaled log2 fold change: -0.39
- MUTANT LABEL: "R60W"
  scaled log2 fold change: -0.217
- MUTANT LABEL: "T80M"
  scaled log2 fold change: 0.0647
- MUTANT LABEL: "N73H"
  scaled log2 fold change: -0.0805
- MUTANT LABEL: "G36I"
  scaled log2 fold change: 0.0053
- MUTANT LABEL: "A4C"
  scaled log2 fold change: 0.0627
- MUTANT LABEL: "Y142V"
  scaled log2 fold change: -0.226
